# Assay comment: BET inhibitor-based combinations targeting novel dependencies in MECOM-rearranged (r) AML: AML-194 cell line (AID 2202237; also: nearly all actives have a fitted effect of over 40% in size)
# Condition parameters: AML-194 (MECOM-r AML) viability, CellTiter-Glo, 48 h; series mostly up to 46 µM
# Protocol: Ecotropic viral insertion site 1 (EVI1) is located on chromosome 3q26.2 as part of the MECOM (MDS and EVI1 complex) locus. […] A collection of 2480 mechanistically annotated dugs (MIPE v5.0) was used to screen four 3q26.2 rearranged AML cell lines and three non-3q26.2 rearranged AML cell lines. […] Cell viability was determined by luminescence based, Cell Titer Glo assay (Promega). […] Luminescence readings were taken using a Viewlux (PerkinElmer) with a 2 s exposure time per plate. […]
Inconclusive results are not listed. Activity calls are given as the source filed them. Calls follow the shape of the dose curve; as a rule, active = well fitted inhibition curve with a large enough effect; inconclusive = small, poorly fitted or top-dose-only effect; inactive = flat fitted curve, though single readings scatter.
Outcome codes: active, inactive

{"Compound": "CN1CCC(CNc2ccc3ncc(-c4cccc(OC(F)(F)F)c4)n3n2)CC1", "Cat": "active"}
{"Compound": "COc1cc(/C=C(\\C#N)C(=O)Nc2nnc(C(F)(F)F)s2)ccc1OCc1ccc(C(F)(F)F)cc1C(F)(F)F", "Cat": "inactive"}
{"Compound": "OCCN(CCO)c1nc(N2CCCCC2)c2nc(N(CCO)CCO)nc(N3CCCCC3)c2n1", "Cat": "inactive"}
{"Compound": "O=C(O)CCCc1c[nH]c2ccccc12", "Cat": "inactive"}
{"Compound": "O=C(O)c1ccc2c(c1)nc(Nc1cccc(Cl)c1)c1ccncc12", "Cat": "active"}
{"Compound": "CN1c2ccccc2C(=O)N2CCc3c([nH]c4ccccc34)C21 (stereo not drawn)", "Cat": "active"}
{"Compound": "Cc1coc2c1C(=O)C(=O)c1c-2ccc2c1CCCC2(C)C", "Cat": "inactive"}
{"Compound": "Cc1c(C(=O)Nc2ccc(N3C[C@@H](C)O[C@@H](C)C3)nc2)cccc1-c1ccc(OC(F)(F)F)cc1", "Cat": "inactive"}
{"Compound": "NC[C@H]1O[C@H](O[C@@H]2[C@@H](O)[C@@H](O[C@H]3O[C@H](CO)[C@@H](O)[C@H](N)[C@@H]3O)[C@H](N)C[C@@H]2N)[C@H](O)[C@@H](O)[C@H]1O", "Cat": "inactive"}
{"Compound": "Cn1cc(-c2ccc3c(c2)CCN3C(=O)Cc2cccc(C(F)(F)F)c2)c2c(N)ncnc21", "Cat": "inactive"}
{"Compound": "CC(C)c1c2cc(-c3ccnc(NC4CCC(NC5CCOCC5)CC4)n3)ccc2nn1C (stereo not drawn)", "Cat": "active"}
{"Compound": "CC[C@@]1(O)C(=O)OCc2c1cc1n(c2=O)Cc2cc3cc(O)ccc3nc2-1", "Cat": "active"}
{"Compound": "C[C@H]1CN(C[C@H](Cc2ccccc2)C(=O)NCC(=O)O)CC[C@@]1(C)c1cccc(O)c1", "Cat": "inactive"}
{"Compound": "CCC(C)(C)C(=O)O[C@H]1C[C@@H](C)C=C2C=C[C@H](C)[C@H](CC[C@@H]3C[C@@H](O)CC(=O)O3)[C@H]21", "Cat": "inactive"}
{"Compound": "Cc1ccc(C(=O)c2cc(O)c(O)c([N+](=O)[O-])c2)cc1", "Cat": "inactive"}
{"Compound": "CC(C(C)N1CC(=O)NC(=O)C1)N1CC(=O)NC(=O)C1 (stereo not drawn)", "Cat": "inactive"}
{"Compound": "CCCNC(=O)Nc1ccc(Oc2ncnc3cc(OC)c(OC)cc23)cc1Cl", "Cat": "inactive"}
{"Compound": "CC1(C)CCC(CN2CCN(c3ccc(C(=O)NS(=O)(=O)c4ccc(NCC5CCOCC5)c([N+](=O)[O-])c4)c(Oc4cnc5[nH]ccc5c4)c3)CC2)=C(c2ccc(Cl)cc2)C1", "Cat": "active"}

====

# Subject of test: Retinaldehyde dehydrogenase 3 (Homo sapiens)
# Assay comment: qHTS for Inhibitors of the Aldehyde Dehydrogenase Family (ALDH1A3) Confirmatory screens (AID 2061311); also: nearly all actives have a fitted effect of over 60% in size
# Condition parameters: ALDH inhibition qHTS; series mostly up to 46 µM
Results filed as inconclusive are left out. Activity calls are given as the source filed them. Calls follow the shape of the dose curve; as a rule, active = well fitted inhibition curve with a large enough effect; inconclusive = small, poorly fitted or top-dose-only effect; inactive = no such curve, though single readings can be large or run the other way.
Outcome codes: yes (active), no (inactive)

{"Compound": "Oc1cc(Nc2cccnc2)cc2cccnc12", "Cat": "yes"}
{"Compound": "COc1ccc(C2Nc3ccccc3C(=O)N2Cc2ccccc2C(F)(F)F)cc1COc1ccc(NC(C)=O)cc1 (stereo not given)", "Cat": "yes"}
{"Compound": "Cc1noc(C)c1-c1csc(N2CCC(C(N)=O)CC2)n1", "Cat": "no"}
{"Compound": "COc1ccc(C2Nc3ccccc3C(=O)N2Cc2cccc(C(F)(F)F)c2)cc1COc1ccc(NC(C)=O)cc1 (stereo not given)", "Cat": "yes"}
{"Compound": "Cc1cc(N2C(=O)c3ccccc3C2=O)n[nH]1", "Cat": "no"}

====

# Assay comment: qHTS for Inhibitors of the Aldehyde Dehydrogenase Family (ALDH1A2, ALDH1A3, ALDH2, ALDH3A1) (AID 2061307); also: nearly all actives have a fitted effect of over 50% in size
# Condition parameters: ALDH inhibition qHTS; series mostly up to 50.3 µM
Records with an inconclusive call do not appear. The source made the active and inactive calls. The call rests on the fitted dose curve; in most records, active means well fitted inhibition curve with a large enough effect; inconclusive means small, poorly fitted or top-dose-only effect; inactive means no such curve, though single readings can be large or run the other way.
Outcome codes: 1.0 = active, 0.0 = inactive

{"Structure smiles string": "O=C(c1cccc(Cl)c1F)N1CCN(Cc2cccc(Nc3nccs3)n2)CC1", "Cat": 0.0}
{"Structure smiles string": "Oc1ccc(CNc2ccccc2F)c2cccnc12", "Cat": 0.0}
{"Structure smiles string": "O=C(Nc1cncc(-c2cccc3ccccc23)c1)c1cccs1", "Cat": 1.0}
{"Structure smiles string": "CN(C)C(=O)Nc1cccc(-c2ccc(N(C)C)cc2)c1", "Cat": 0.0}
{"Structure smiles string": "O=C(NCCc1nc2ccccc2n1CCOc1cccc(Br)c1)C1CCCCC1", "Cat": 0.0}
{"Structure smiles string": "COc1cc2c(cc1NS(=O)(=O)c1ccc(Br)cc1C)n(C)c(=O)n2C", "Cat": 0.0}
{"Structure smiles string": "O=[N+]([O-])c1ccc(CNc2ccc([S+](=O)([O-])Nc3nccs3)cc2)c(O)c1", "Cat": 0.0}
{"Structure smiles string": "O=C1[C@@H]2[C@H]3CC[C@H](C3)[C@@H]2C(=O)N1CCCCN1CCN(c2ncccn2)CC1", "Cat": 0.0}
{"Structure smiles string": "N#Cc1cccc(N2CCN(Cc3ccc(F)c(Cl)c3F)CC2)n1", "Cat": 1.0}
{"Structure smiles string": "O=C1CC(c2ccc([N+](=O)[O-])cc2)=NN1c1ccccc1", "Cat": 0.0}
{"Structure smiles string": "O=C(O)c1cccnc1SC1=NS(=O)(=O)c2ccccc21", "Cat": 0.0}

====

# Subject of test: Cellular tumor antigen p53 (Homo sapiens)
# Assay comment: Primary qHTS for small molecule compounds that upregulate eGFP-tagged delta133p53alpha (in N-terminal) cells. (AID 2060322);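 also: cells pre-induced with doxycycline then dosed without doxycycline; 0% = DMSO vehicle and 100% = reference activator; nearly all actives have a fitted effect of over 75% in size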
# Condition parameters: NCI-H358 eGFP-delta133p53alpha fluorescence, 24 h; active compounds read high
Records with an inconclusive call do not appear.
Catalogue of activation readings, one per entry.
Endpoint name: activation (%)

{"Molecule": "CCOC(=O)[C@@H](N)CCC(=O)N[C@@H](CSCc1ccccc1)C(=O)N[C@@H](C(=O)OCC)c1ccccc1", "Observed value": -1.42}
{"Molecule": "CCC(C)C(=O)O[C@H]1CCC=C2C=C[C@H](C)[C@H](CC[C@@H](O)C[C@@H](O)CC(=O)O)[C@H]21 (stereo partly drawn)", "Observed value": -32.8}
{"Molecule": "CCCn1c(=O)c2[nH]c(C34CC5CC3C[C@@H](C5)C4)nc2n(CCC)c1=O", "Observed value": 31.9}
{"Molecule": "CNc1ccc([N+](=O)[O-])cc1-n1cnc(-c2ccc(C(F)(F)F)cc2)c1", "Observed value": 5.25}
{"Molecule": "O=C1CC2(CCCC2)CC(=O)N1", "Observed value": -7.34}
{"Molecule": "C[C@H](N)C(=O)N[C@@H](Cc1ccc(O)cc1)C(=O)N1CCC[C@H]1C(=O)NCC(=O)N[C@@H](CCCCN)C(=O)N[C@@H](Cc1ccccc1)C(N)=O", "Observed value": -5.67}
{"Molecule": "COc1ccccc1NC(=O)OCC1CCN(C(=O)OC(C)(C)C)CC1", "Observed value": -5.67}
{"Molecule": "CC(C)CC(NP(=O)(O)O[C@@H]1O[C@@H](C)[C@H](O)[C@@H](O)[C@H]1O)C(=O)NC(Cc1c[nH]c2ccccc12)C(=O)O (stereo partly drawn)", "Observed value": -14.9}
{"Molecule": "CC1CCC2C(=CCC(O)C2(C)C)C1(C)Cc1c(O)cc(CO)c(C=O)c1O (stereo not drawn)", "Observed value": 9.92}
{"Molecule": "COc1ccc(-c2c(-c3ccc(O)cc3O)n[nH]c2C)cc1", "Observed value": -3.77}
{"Molecule": "CCCCC(=O)OCC(=O)[C@H]1[C@H](C)C[C@H]2[C@@H]3C[C@H](F)C4=CC(=O)C=C[C@]4(C)[C@@]3(F)[C@@H](O)C[C@@]21C", "Observed value": -6.21}
{"Molecule": "Cc1[nH]c2ccccc2c1CCNC(=O)c1ccccc1F", "Observed value": -0.477}
{"Molecule": "N#C/C(=C\\c1ccc(O)c(O)c1)C(=O)NCCc1ccccc1", "Observed value": -26.1}
{"Molecule": "CCOc1ccc2nc(SCCN3CCOCC3)[nH]c2c1", "Observed value": -7.64}
{"Molecule": "O=c1[nH]c2ccccc2c(=O)n1CCCl", "Observed value": 6.21}
{"Molecule": "C=C1CC[C@@]2(OC1)O[C@H]1CC3[C@@H]4CC=C5C[C@@H](O)C[C@@H](O[C@@H]6OC[C@H](O)[C@H](O)[C@H]6O[C@@H]6O[C@@H](C)[C@H](O)[C@@H](O)[C@H]6O)[C@]5(C)C4CC[C@]3(C)[C@H]1[C@@H]2C (stereo partly drawn)", "Observed value": -26}
{"Molecule": "CCOC(=O)C1=C[C@@H](OC(CC)CC)[C@H](NC(C)=O)[C@@H](N)C1", "Observed value": -8.89}
{"Molecule": "COc1ccccc1N1CCN(CCN(C(=O)c2ccc(F)cc2)c2ccccn2)CC1", "Observed value": 5.52}
